Biological target: T1, HsmtSSBΔC (Homo sapiens, UniProt Q04837 =M+17-141, internal_change)
T1 sequence: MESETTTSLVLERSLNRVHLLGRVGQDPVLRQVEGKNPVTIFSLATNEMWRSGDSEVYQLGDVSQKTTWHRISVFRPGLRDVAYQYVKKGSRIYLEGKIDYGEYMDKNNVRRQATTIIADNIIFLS
Assay: EMSA; 50 mM NaCl, 4 mM Mg2+; apparent Kd, protein as tetramer; 20 mM Tris-HCl pH 7.5, 1 mM DTT, 4 mM MgCl2, 50 mM NaCl, 36 fmol 48-mer in 20 µL, 20°C 10 min; 6% native PAGE
Conditions: protein: recombinant; tags: none (untagged); chain copies: 4; label: 5'-32P; single strand
MEASUREMENT LABEL: Kd

INPUT: Param item = GGACTATTTATTAAATATATTTAAGAACTAATTCCAGCTGAGCGCCGG (ssDNA) [48-mer ssDNA oligonucleotide] ; retrieve measured Kd.
OUTPUT: ~5 nM
